The reported numbers originate from the supplement of paper PMC4466140.

Reported SPOT peptide array binding signal intensity values follow for various binders
Target: ScBem1-D1
Test: SPOT peptide array binding signal intensity (averaged, normalized) (arbitrary units (background-subtracted, floor 0; scale differs between SH3 domains)); higher = stronger binding of the SH3 domain to the peptide
# respond with the number and nothing more

>>> reading("SSTPTTPERPKRKSG")
3
>>> reading("NILKRRPLKLEAPSK")
10
>>> reading("NTMKKRPAPPSLPSL")
1

Could you now consider this next binder?
So, "HPRFVSPRIPSRIVK" ? Its SPOT peptide array binding signal intensity was 21.5
